Molecular target: Neuromedin-U receptor 2 (Homo sapiens, UniProt Q9GZQ4)
Sequence (Q9GZQ4 whole entry): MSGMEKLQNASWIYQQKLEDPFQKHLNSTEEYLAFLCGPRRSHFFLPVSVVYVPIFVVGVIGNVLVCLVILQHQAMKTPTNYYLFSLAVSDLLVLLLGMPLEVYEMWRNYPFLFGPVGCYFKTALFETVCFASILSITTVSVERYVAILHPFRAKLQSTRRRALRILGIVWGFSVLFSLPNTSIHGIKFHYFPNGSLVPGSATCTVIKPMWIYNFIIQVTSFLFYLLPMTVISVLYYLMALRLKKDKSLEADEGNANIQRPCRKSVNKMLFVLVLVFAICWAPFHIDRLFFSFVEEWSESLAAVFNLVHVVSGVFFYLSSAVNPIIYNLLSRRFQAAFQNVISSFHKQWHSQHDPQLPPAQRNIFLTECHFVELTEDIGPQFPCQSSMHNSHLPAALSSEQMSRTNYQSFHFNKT
Experiment: Agonist activity at human NMUR2 expressed in HEK293 cells assessed as IP3 accumulation after 60 mins in presence of myo-[2-3H(N)]inositol by scintillation proximity assay relative to 10^-5 M NMU-8
Assay type: functional, cell-based
Non-standard residues stand in square brackets, D forms with d. Residues, ends and D or L forms follow the SMILES beside them. Tic(7-OH) = O=C(O)[C@@H]1Cc2ccc(O)cc2CN1; NMeF = CN[C@@H](Cc1ccccc1)C(=O)O; Dap = NC[C@H](N)C(=O)O
Recorded Emax values for a group of molecules are listed next.
QUANTITY_MEASURED: Emax (%)

{"columns": ["MOLECULE", "RECORDED_MEASUREMENT"],
 "data": [
  ["CC(=O)N1Cc2cc(O)ccc2C[C@H]1C(=O)N[C@@H](Cc1ccccc1)C(=O)N[C@@H](CC(C)C)C(=O)N(C)[C@@H](Cc1ccccc1)C(=O)N[C@@H](CCCNC(=N)N)C(=O)N1CCC[C@H]1C(=O)N[C@@H](CCCNC(=N)N)C(=O)N[C@@H](CC(N)=O)C(N)=O (Ac-[Tic(7-OH)]FL[NMeF]RPRN-NH2)", 97.2],
  ["CC(=O)N1Cc2cc(O)ccc2C[C@H]1C(=O)N[C@@H](Cc1ccccc1)C(=O)N[C@@H](CC(C)C)C(=O)N[C@@H](Cc1ccccc1)C(=O)N[C@@H](CN)C(=O)N1CCC[C@H]1C(=O)N[C@@H](CCCNC(=N)N)C(=O)N[C@@H](CC(N)=O)C(N)=O (Ac-[Tic(7-OH)]FLF[Dap]PRN-NH2)", 97.6],
  ["CC(=O)N[C@@H](Cc1ccc(O)cc1)C(=O)N[C@@H](Cc1ccccc1)C(=O)N[C@@H](CC(C)C)C(=O)N[C@@H](Cc1ccccc1)C(=O)N[C@@H](CCCNC(=N)N)C(=O)N1CCC[C@H]1C(=O)N[C@@H](CCCNC(=N)N)CC(=O)N[C@@H](CC(N)=O)C(N)=O", 81.4],
  ["CNC(=O)C[C@H](NC(=O)[C@H](CCCNC(=N)N)NC(=O)[C@@H]1CCCN1C(=O)[C@H](CCCNC(=N)N)NC(=O)[C@H](Cc1ccccc1)NC(=O)[C@H](CC(C)C)NC(=O)[C@H](Cc1ccccc1)NC(=O)[C@H](Cc1ccc(O)cc1)NC(C)=O)C(N)=O", 85.1],
  ["CC(=O)N[C@@H](Cc1ccc(O)cc1)C(=O)N[C@@H](Cc1ccccc1)C(=O)N[C@@H](CC(C)C)C(=O)N[C@@H](Cc1ccccc1)C(=O)N[C@@H](CCCNC(=N)N)C(=O)N1CCC[C@H]1C(=O)N[C@@H](CCCNC(=N)N)C(=O)N[C@@H](CC(N)=O)C(=O)NCc1ccccc1", 104],
  ["CC(=O)N[C@@H](Cc1ccc(O)cc1)C(=O)N[C@@H](Cc1ccccc1)C(=O)N[C@@H](CC(C)C)C(=O)N[C@@H](Cc1ccccc1)C(=O)N[C@@H](CCCNC(=N)N)C(=O)N1CCC[C@H]1C(=O)N[C@@H](CCCNC(=N)N)C(=O)N[C@@H](CC(=O)NCc1ccccc1)C(N)=O", 65.8],
  ["CNC(=O)[C@H](CC(N)=O)NC(=O)[C@H](CCCNC(=N)N)NC(=O)[C@@H]1CCCN1C(=O)[C@H](CCCNC(=N)N)NC(=O)[C@H](Cc1ccccc1)NC(=O)[C@H](CC(C)C)NC(=O)[C@H](Cc1ccccc1)NC(=O)[C@H](Cc1ccc(O)cc1)NC(C)=O", 107]
]}

Provenance of the data: ChEMBL document CHEMBL4145600
